Reference for the values: paper PMC3582025

- MEASURED ON: dopamine transporter (DAT) (Homo sapiens, UniProt Q01959)
- Sequence (Q01959 whole entry): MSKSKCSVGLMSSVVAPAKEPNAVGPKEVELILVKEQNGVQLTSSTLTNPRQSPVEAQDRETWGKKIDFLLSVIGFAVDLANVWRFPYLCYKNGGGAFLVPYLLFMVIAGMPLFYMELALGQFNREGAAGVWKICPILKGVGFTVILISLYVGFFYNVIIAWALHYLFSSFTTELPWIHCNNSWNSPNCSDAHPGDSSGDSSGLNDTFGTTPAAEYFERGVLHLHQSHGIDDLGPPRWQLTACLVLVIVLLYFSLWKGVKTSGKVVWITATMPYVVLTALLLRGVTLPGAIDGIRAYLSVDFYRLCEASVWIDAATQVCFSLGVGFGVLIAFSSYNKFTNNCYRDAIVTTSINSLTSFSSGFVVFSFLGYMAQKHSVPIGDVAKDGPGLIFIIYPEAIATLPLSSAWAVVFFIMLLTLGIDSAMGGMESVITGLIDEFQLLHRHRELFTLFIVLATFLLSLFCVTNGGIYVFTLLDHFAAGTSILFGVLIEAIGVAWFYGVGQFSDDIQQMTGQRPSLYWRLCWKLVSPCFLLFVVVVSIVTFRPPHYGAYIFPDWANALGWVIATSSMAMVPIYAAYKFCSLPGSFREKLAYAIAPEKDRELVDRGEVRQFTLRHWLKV
- EXPERIMENT DESCRIPTION: cell-based
- RECORDED CONDITIONS: DAT Ki, inhibition of transporter uptake activity
MEASURE NAME: log10 of Ki (log10 of the value in nM)
Use the decimal logarithm of Ki (nM).

Examples from the recorded data:
>>> observed_value("NC1Cc2cc3c(cc2C1)OCO3")
3.69
>>> observed_value("CCCC(C(=O)c1cccc2ccccc12)N1CCCC1.Cl (stereo not drawn)")
1.68
>>> observed_value("NC1Cc2ccc(I)cc2C1 (stereo not drawn)")
3.20

Return reported log10 of Ki; argument: CC(N)Cc1ccc2ccoc2c1.Cl (stereo not drawn)
2.18

Name the recorded log10 of Ki for CC(N)Cc1ccc2occc2c1.Cl (stereo not drawn) .
2.42

Given the compound CNC(C)C(=O)c1ccc(C)cc1.Cl (stereo not drawn) , what is its reported log10 of Ki?
2.73

* * *

- MEASURED ON: norepinephrine transporter (NET) (Homo sapiens, UniProt P23975)
- Sequence (P23975 whole entry): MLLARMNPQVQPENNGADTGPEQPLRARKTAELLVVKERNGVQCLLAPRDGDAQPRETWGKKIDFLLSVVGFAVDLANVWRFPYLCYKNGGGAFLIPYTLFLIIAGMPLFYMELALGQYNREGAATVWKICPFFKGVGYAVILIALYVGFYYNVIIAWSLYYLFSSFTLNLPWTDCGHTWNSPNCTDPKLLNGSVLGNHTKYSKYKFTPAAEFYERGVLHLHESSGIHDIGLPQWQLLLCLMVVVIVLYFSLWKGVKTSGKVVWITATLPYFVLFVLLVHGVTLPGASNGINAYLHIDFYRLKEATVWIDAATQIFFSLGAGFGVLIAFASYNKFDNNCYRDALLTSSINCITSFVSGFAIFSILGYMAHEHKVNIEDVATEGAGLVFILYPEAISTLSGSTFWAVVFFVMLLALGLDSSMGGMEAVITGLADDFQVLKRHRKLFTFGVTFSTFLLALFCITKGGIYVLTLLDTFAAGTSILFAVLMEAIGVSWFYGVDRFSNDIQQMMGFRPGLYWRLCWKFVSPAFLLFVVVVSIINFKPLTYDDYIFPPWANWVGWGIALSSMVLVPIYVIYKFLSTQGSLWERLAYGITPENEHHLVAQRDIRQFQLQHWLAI
- EXPERIMENT DESCRIPTION: cell-based
- Type: cell-based
- RECORDED CONDITIONS: NET pKi (mean +/- S.E.M)
Each record here notes measured pKi.
Keep it numeric: pKi is minus log10 of the concentration in mol/L.

>>> observed_value("CN[C@H](C)Cc1ccc2c(c1)OCO2 [(−)-MDMA, 3,4-methylenedioxymethamphetamine, reference compound]")
5.50

Now examine the next entry.
Any idea what pKi came out for CN[C@@H](C)Cc1ccc2c(c1)OCO2 [(+)-MDMA, 3,4-methylenedioxymethamphetamine, reference compound] on norepinephrine transporter (NET) (Homo sapiens, UniProt P23975)?
5.70

* * *

- MEASURED ON: UniProt:P23975
- EXPERIMENT DESCRIPTION: cell-based
- Format: cell-based
- RECORDED CONDITIONS: NET pKi (mean +/- S.E.M), inhibition of transporter uptake activity, N=3
Where a name gives a salt, the structure may show the parent alone.
MEASURE NAME: Ki (nM)
// units = nM; emit number, no label

>>> observed_value("c1ccc(C(c2ccccc2)C2CCCCN2)cc1 (stereo not shown) [Desoxypipradrol, 2-benzhydrylpiperidine hydrochloride]")
550
>>> observed_value("Cl.NC1CCc2cc3c(cc2C1)OCO3 (stereo not shown) [Methylenedioxy-aminotetralin]")
2290
>>> observed_value("NC1Cc2cc3c(cc2C1)OCO3 [Methylenedioxy-aminoindane]")
1660

Item CCNC(C)C(=O)c1ccc(C)cc1 (stereo not shown) [Methylethcathinone] has what recorded Ki?
4370

* * *

- MEASURED ON: serotonin transporter (SERT) (Homo sapiens, UniProt P31645)
- Sequence (P31645 whole entry): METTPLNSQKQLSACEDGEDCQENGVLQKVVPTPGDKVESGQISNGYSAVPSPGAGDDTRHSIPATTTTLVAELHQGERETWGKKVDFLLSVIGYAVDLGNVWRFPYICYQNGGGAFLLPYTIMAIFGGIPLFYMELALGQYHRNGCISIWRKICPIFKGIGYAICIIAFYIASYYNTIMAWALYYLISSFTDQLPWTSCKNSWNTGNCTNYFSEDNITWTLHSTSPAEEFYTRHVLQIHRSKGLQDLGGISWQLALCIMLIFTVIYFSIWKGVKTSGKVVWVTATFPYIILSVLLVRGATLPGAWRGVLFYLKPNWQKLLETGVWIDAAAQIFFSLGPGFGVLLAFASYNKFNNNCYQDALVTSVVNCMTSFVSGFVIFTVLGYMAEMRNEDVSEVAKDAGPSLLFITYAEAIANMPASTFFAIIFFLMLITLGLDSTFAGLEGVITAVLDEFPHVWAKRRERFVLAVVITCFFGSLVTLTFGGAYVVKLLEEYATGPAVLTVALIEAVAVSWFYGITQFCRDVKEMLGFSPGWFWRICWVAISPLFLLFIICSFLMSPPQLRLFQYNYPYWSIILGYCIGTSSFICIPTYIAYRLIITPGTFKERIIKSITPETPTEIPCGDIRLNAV
- EXPERIMENT DESCRIPTION: cell-based
- Assay type: cell-based
- RECORDED CONDITIONS: SERT Ki, inhibition of transporter uptake activity
MEASURE NAME: log10 Ki (log10 of the value in nM)
Each number you see is log10 of Ki, and the unit inside the log is nM.

For orientation, consider the following solved cases.
>>> observed_value("CC(N)Cc1ccc2occc2c1.Cl (centres unmarked)")
2.91
>>> observed_value("CC(N)Cc1ccc2ccoc2c1.Cl (centres unmarked)")
3.43
>>> observed_value("NC1Cc2ccc(I)cc2C1 (centres unmarked)")
2.94
>>> observed_value("CCCC(C(=O)c1cccc2ccccc12)N1CCCC1.Cl (centres unmarked)")
2.55
>>> observed_value("CNC(C)C(=O)c1ccc(C)cc1.Cl (centres unmarked)")
3.69

Give the measured log10 Ki of CCNC(C)C(=O)c1ccc(C)cc1 (centres unmarked) .
3.26

Look up log10 Ki for this compound: Cl.NC1CCc2cc3c(cc2C1)OCO3 (centres unmarked)
3.04

* * *

- MEASURED ON: dopamine transporter (DAT) (Homo sapiens, UniProt Q01959)
- EXPERIMENT DESCRIPTION: cell-based
- RECORDED CONDITIONS: DAT Ki
MEASURE NAME: Ki

Please review the entries below; each comes with its answer.
>>> observed_value("CCCC(C(=O)c1cccc2ccccc12)N1CCCC1.Cl (centres unmarked) [1-Naphyrone]")
"< 0.1 µM"
>>> observed_value("CN[C@H](C)Cc1ccc2c(c1)OCO2 [(−)-MDMA, 3,4-methylenedioxymethamphetamine, reference compound]")
"2.42 µM"
>>> observed_value("CN(C)CCC=C1c2ccccc2CCc2ccccc21 [Amitriptyline, reference compound]")
"4.64 µM"
>>> observed_value("CCCC(C(=O)c1ccc2ccccc2c1)N1CCCC1.Cl (centres unmarked) [Naphyrone]")
"0.053 µM"

Proceeding to the next molecule to report its Ki.
Param readout= Ki; system= dopamine transporter (DAT) (Homo sapiens, UniProt Q01959); entry= CN[C@@H](C)Cc1ccc2c(c1)OCO2 [(+)-MDMA, 3,4-methylenedioxymethamphetamine, reference compound] ; returns value.
0.897 µM

* * *

- MEASURED ON: serotonin transporter (SERT) (Homo sapiens)
- EXPERIMENT DESCRIPTION: cell-based
- Type: cell-based
- RECORDED CONDITIONS: SERT pKi (mean +/- S.E.M)
MEASURE NAME: Ki (µM)
Respond with the bare value in µM.

>>> observed_value("NC1Cc2cc3c(cc2C1)OCO3")
11.7

Please find the next compound below.
Endpoint output: Ki of CN[C@@H](C)Cc1ccc2c(c1)OCO2 [(+)-MDMA, 3,4-methylenedioxymethamphetamine, reference compound] . Value?
2.75

* * *

- MEASURED ON: serotonin transporter (SERT) (Homo sapiens)
- EXPERIMENT DESCRIPTION: cell-based
- Assay type: cell-based
- RECORDED CONDITIONS: SERT pKi (mean +/- S.E.M), inhibition of transporter uptake activity, N=3
Structures can show the parent of a compound that is named as a salt.
Listing of recorded Ki by entry.
Note: a bare number is incomplete; add the unit.

Some compounds with known Ki results, for comparison:
>>> observed_value("NC1Cc2ccc(I)cc2C1 (stereo not shown)")
"1.78 µM"
>>> observed_value("CCNC(C)C(=O)c1ccc(C)cc1 (stereo not shown)")
"3.72 µM"
>>> observed_value("CC(N)Cc1ccc2ccoc2c1.Cl (stereo not shown)")
"5.5 µM"
>>> observed_value("CC(N)Cc1ccc2occc2c1.Cl (stereo not shown)")
"1.66 µM"
>>> observed_value("CC(NCc1ccccc1)C(=O)c1ccc2c(c1)OCO2 (stereo not shown)")
"29.5 µM"
>>> observed_value("CCC(C)CC(C)N (stereo not shown) [Dimethylamylamine, 4-methylhexan-2-amine hydrochloride]")
"178 µM"
>>> observed_value("CNC(C)C(=O)c1ccc(C)cc1.Cl (stereo not shown)")
"10.2 µM"
>>> observed_value("c1ccc(C(c2ccccc2)C2CCCCN2)cc1 (stereo not shown) [Desoxypipradrol, 2-benzhydrylpiperidine hydrochloride]")
"53.7 µM"

Requested field: Ki. Item: Cc1ccc(C(=O)C(C)NCc2ccccc2)cc1 (stereo not shown)
17.8 µM

Can you share its Ki? I mean this compound: Cl.NC1CCc2cc3c(cc2C1)OCO3 (stereo not shown)
2.24 µM

* * *

Form: system (SERT (Homo sapiens)), quantity (pKi), values below.
pKi: −log10 of the molar value.

>>> observed_value("CCCC(C(=O)c1cccc2ccccc12)N1CCCC1.Cl (centres unmarked) [1-Naphyrone]")
"> 7.00"

Recorded pKi of CCCC(C(=O)c1ccc2ccccc2c1)N1CCCC1.Cl (centres unmarked) [Naphyrone] , please.
> 7.00

* * *

- MEASURED ON: norepinephrine transporter (NET) (Homo sapiens, UniProt P23975)
- EXPERIMENT DESCRIPTION: cell-based
- Type: cell-based
- RECORDED CONDITIONS: NET Ki, inhibition of transporter uptake activity
Where a name gives a salt, the structure may show the parent alone.
Known pKi of a selection of compounds
A value of pKi is the negative decimal logarithm of a concentration given in moles per litre.

Item CC(NCc1ccccc1)C(=O)c1ccc2c(c1)OCO2 (centres unmarked) has what recorded pKi?
5.79

Given the compound Cc1ccc(C(=O)C(C)NCc2ccccc2)cc1 (centres unmarked) , what is its reported pKi?
5.91

Consider the compound Cl.NC1CCc2cc3c(cc2C1)OCO3 (centres unmarked) and give its measured pKi.
6.05

If you can, please state the reported pKi value of CCC(C)CC(C)N (centres unmarked) [Dimethylamylamine, 4-methylhexan-2-amine hydrochloride] .
6.19

# lookup: pKi of CCCC(C(=O)c1cccc2ccccc12)N1CCCC1.Cl (centres unmarked)
6.27

* * *

- MEASURED ON: serotonin transporter (SERT) (Homo sapiens, UniProt P31645)
- EXPERIMENT DESCRIPTION: cell-based
- Type: cell-based
- RECORDED CONDITIONS: SERT Ki
# Ki listing for each entry below

Past entries and their recorded results:
>>> observed_value("NC1Cc2cc3c(cc2C1)OCO3 [Methylenedioxy-aminoindane]")
"> 10000 nM"
>>> observed_value("CN[C@H](C)Cc1ccc2c(c1)OCO2 [(−)-MDMA, 3,4-methylenedioxymethamphetamine, reference compound]")
"2310 nM"
>>> observed_value("CCCC(C(=O)c1ccc2ccccc2c1)N1CCCC1.Cl (stereo not shown) [Naphyrone]")
"235 nM"

Lookup: Ki / serotonin transporter (SERT) (Homo sapiens, UniProt P31645) / CN[C@@H](C)Cc1ccc2c(c1)OCO2 [(+)-MDMA, 3,4-methylenedioxymethamphetamine, reference compound]
948 nM
